# experimental target: MBP-FoxP3dN (Mus musculus, UniProt Q99JB6 188-423)
# Sequence: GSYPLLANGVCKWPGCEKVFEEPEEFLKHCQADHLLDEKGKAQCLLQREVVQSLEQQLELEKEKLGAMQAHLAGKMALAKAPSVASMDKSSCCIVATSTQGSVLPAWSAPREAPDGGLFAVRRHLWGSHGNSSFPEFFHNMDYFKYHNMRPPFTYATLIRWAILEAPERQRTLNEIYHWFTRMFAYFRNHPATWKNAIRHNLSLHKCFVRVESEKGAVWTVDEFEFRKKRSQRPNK
# procedure details: PD-seq (MBP pull-down with sequencing); 20 mM Tris-HCl pH 7.5, 100 mM NaCl, 1.5 mM MgCl2, 0.4 uM protein, 0.1 uM dsDNA library, 30 min, room temperature, amylose pull-down; high values mean tight binding
# condition info: protein: recombinant; tags: His6-MBP; chain copies: 2; dsDNA, one strand shown
The full ranking holds about 16,000 sequences; the median of “rpm ratio (pull-down/input)” is about 0.5, and the highest 2% start at about 5.5. The entries come from a sample that favours the highest values as a whole.
measured metric: binding signal

GATGATTGTTCTCCCAGCTGATGAATTTCGCCTCTCGAGTAAACAAATTTTCCTAATCTTTCTGTTCAAGCGCCATCTAC
6.04 RPM ratio (pull-down/input)
GATGATTGTTCTCCCAGCTGATGAATTCTGCCTCTCGAGTAAACAAATTTTCCTAATCTTTCTGTTCAAGCGCCATCTAC
5.87 RPM ratio (pull-down/input)
GATGATTGTTCTCCCAGCTGATGAATTCATTTGCTCGAGTAAACAAATTTTCCTAATCTTTCTGTTCAAGCGCCATCTAC
2.92 RPM ratio (pull-down/input)
GATGATTGTTCTCCCAGCTGATGAATTCTGCGCCTCGAGTAAACAAATTTTCCTAATCTTTCTGTTCAAGCGCCATCTAC
2.3 RPM ratio (pull-down/input)

* * *

# experimental target: MBP-FoxP3dN (Mus musculus, UniProt Q99JB6 188-423)
# Sequence: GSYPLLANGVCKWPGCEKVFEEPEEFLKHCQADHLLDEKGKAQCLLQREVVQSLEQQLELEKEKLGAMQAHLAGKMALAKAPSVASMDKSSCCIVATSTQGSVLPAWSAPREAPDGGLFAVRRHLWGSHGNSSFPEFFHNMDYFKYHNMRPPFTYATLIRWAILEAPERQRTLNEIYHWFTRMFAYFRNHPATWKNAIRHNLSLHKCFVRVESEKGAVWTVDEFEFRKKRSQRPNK
# procedure details: PD-seq (MBP pull-down with sequencing); 20 mM Tris-HCl pH 7.5, 100 mM NaCl, 1.5 mM MgCl2, 0.4 uM protein, 0.1 uM dsDNA library, 30 min, room temperature, amylose pull-down; high values mean tight binding
# condition info: protein: recombinant; tags: His6-MBP; chain copies: 2; dsDNA, one strand shown
In all, about 16,000 sequences were measured (“rpm ratio (pull-down/input)”: median about 0.5, highest 2% from about 5.5 on). For the sample, the highest values were picked, then their nearest neighbours and some sequences at random.
binding signal by entry:
measured metric: binding signal

GATGATTGTTCTCCCAGCTGATGAATTTTAGTTATCGAGTAAACAAATTTTCCTAATCTTTCTGTTCAAGCGCCATCTAC
1.33 RPM ratio (pull-down/input)
GATGATTGTTCTCCCAGCTGATGAATTTGTCGGTTCGAGTAAACAAATTTTCCTAATCTTTCTGTTCAAGCGCCATCTAC
3.1 RPM ratio (pull-down/input)
GATGATTGTTCTCCCAGCTGATGAATTTTGTTCCTCGAGTAAACAAATTTTCCTAATCTTTCTGTTCAAGCGCCATCTAC
1.64 RPM ratio (pull-down/input)
GATGATTGTTCTCCCAGCTGATGAATTTCACGGCTCGAGTAAACAAATTTTCCTAATCTTTCTGTTCAAGCGCCATCTAC
0.24 RPM ratio (pull-down/input)
GATGATTGTTCTCCCAGCTGATGAATTAAGACGGTCGAGTAAACAAATTTTCCTAATCTTTCTGTTCAAGCGCCATCTAC
0.236 RPM ratio (pull-down/input)
GATGATTGTTCTCCCAGCTGATGAATTTTACGCGTCGAGTAAACAAATTTTCCTAATCTTTCTGTTCAAGCGCCATCTAC
0.624 RPM ratio (pull-down/input)
GATGATTGTTCTCCCAGCTGATGAATTGTTTTCCTCGAGTAAACAAATTTTCCTAATCTTTCTGTTCAAGCGCCATCTAC
4.78 RPM ratio (pull-down/input)
